experimental.system: HIV Env of isolate CNE8 (clade AE) (HIV)
assay.name: cell-based or functional assay
value.type: IC50 (µg/ml) with constrains (µg/mL)
Answers are plain numbers, in µg/mL.

Problem: Reported IC50 (µg/ml) with constrains, binder ePGDM9 (antibody, V domains shown) VH: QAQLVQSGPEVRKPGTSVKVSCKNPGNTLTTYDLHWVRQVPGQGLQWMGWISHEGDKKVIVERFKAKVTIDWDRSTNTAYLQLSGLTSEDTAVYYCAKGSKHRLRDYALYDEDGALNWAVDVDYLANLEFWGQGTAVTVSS VL: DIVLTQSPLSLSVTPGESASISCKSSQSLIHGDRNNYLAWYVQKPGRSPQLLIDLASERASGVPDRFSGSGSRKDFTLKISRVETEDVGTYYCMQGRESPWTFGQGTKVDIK : ____
Result: 0.001

Lab note: each binder below needs its IC50 (µg/ml) with constrains filled in.
1. PGDM1400 (antibody, V domains shown) VH: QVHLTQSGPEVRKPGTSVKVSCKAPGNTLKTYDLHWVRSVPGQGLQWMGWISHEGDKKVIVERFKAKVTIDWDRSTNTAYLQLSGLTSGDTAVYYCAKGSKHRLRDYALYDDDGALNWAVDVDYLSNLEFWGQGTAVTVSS VL: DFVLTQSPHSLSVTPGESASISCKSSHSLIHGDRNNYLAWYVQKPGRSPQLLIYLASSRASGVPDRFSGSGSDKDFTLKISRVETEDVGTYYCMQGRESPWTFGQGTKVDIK
2. ePGDM13 (antibody, V domains shown) VH: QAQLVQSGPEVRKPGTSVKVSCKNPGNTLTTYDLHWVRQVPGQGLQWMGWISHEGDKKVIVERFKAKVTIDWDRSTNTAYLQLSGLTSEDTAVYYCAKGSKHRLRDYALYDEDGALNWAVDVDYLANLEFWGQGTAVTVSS VL: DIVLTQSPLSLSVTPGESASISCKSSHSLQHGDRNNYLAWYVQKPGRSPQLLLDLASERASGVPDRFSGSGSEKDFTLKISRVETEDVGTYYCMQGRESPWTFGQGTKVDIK
3. ePGDM5 (antibody, V domains shown) VH: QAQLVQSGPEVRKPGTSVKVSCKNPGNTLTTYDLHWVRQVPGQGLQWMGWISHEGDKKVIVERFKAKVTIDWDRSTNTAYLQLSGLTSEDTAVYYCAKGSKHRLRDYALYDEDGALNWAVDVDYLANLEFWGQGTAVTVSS VL: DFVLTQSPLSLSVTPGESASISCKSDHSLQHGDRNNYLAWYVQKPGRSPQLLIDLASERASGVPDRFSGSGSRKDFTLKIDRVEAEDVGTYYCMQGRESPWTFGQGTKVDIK

Result:
1. 0.001
2. 0.005
3. 0.001
